Cited source for all entries: patent US9127164B2

Test: Fluorescence lifetime by time-correlated single photon counting (Edinburgh Instruments FLS920)
Assay type: physicochemical
Settings: Table 3, molecules synthesised
Peptide text beside a SMILES is read from it. * marks the point of attachment. Propanoyl(3-(9AA-2-yl)) = Nc1c2ccccc2nc2ccc(CCC(=O)*)cc12
Kindly supply the reported Lifetime* (ns) values for the records listed here.
Form entry: value (ns) — number only.

compound CC(C)[C@H](NC(=O)[C@H](CCC(=O)O)NC(=O)[C@H](CC(=O)O)NC(=O)CCc1ccc2nc3ccccc3c(N)c2c1)C(=O)N[C@@H](CC(=O)O)C(=O)N[C@@H](CO)C(=O)N[C@@H](Cc1c[nH]c2ccccc12)C(=O)O ({Propanoyl(3-(9AA-2-yl))}-DEVDSW-OH) , Lifetime* (ns) observed: 7.7

compound Nc1c2ccccc2nc2ccc(CCC(=O)O)cc12 [3-(9-amino-acridin-2-yl)-propionic acid] , Lifetime* (ns) observed: 17.0

compound CC(C)(C)OC(=O)CCc1ccc2nc3ccccc3c(N)c2c1 , Lifetime* (ns) observed: 16.7

compound CC(C)[C@H](NC(=O)[C@H](CCC(=O)O)NC(=O)[C@H](CC(=O)O)NC(=O)CCc1ccc2nc3ccccc3c(N)c2c1)C(=O)N[C@@H](CC(=O)O)C(=O)N[C@@H](CO)C(=O)N[C@@H](CCCCN)C(=O)O ({Propanoyl(3-(9AA-2-yl))}-DEVDSK-OH) , Lifetime* (ns) observed: 17.7

compound CC(C)(C)OC(=O)/C=C/c1ccc2nc3ccccc3c(N)c2c1 , Lifetime* (ns) observed: 11.2
